Reference for the values: patent US8481011B2

System: B16 murine melanocytes
experiment: MTT cellular respiration toxicity test on B16 melanocytes
Type: cell-based
condition-set: concentration 10 μM, cell viability
# % MTT values compiled below
Numeric answer only, unit % assumed.

The cases that follow already have their % MTT on record.
1) CC1=C(/C=C/C(C)=C/C=C/C(C)=C/C(=O)OC(C)(C)C)C(C)(C)CCC1=O	80
2) CC1=C(/C=C/C(C)=C/C=C/C(C)=C/C(=O)OC(C)(C)C)C(C)(C)CCC1O (centres unmarked)	62
3) COC(=O)/C=C(C)/C=C/C=C(C)/C=C/C1=C(C)C(=O)CCC1(C)C	86
4) CC(=O)OC1CCC(C)(C)C(/C=C/C(C)=C/C=C/C(C)=C/C(=O)OC(C)(C)C)=C1C (centres unmarked)	82
5) CC1=C(/C=C/C(C)=C/C=C/C(C)=C/C(=O)O)C(C)(C)CCC1O (centres unmarked)	69
6) CC1=C(/C=C/C(C)=C/C=C/C(C)=C/C(=O)O)C(C)(C)CCC1=O	76

Input: Recall and state the measured % MTT for "CC(=O)OC/C=C(C)/C=C/C=C(C)/C=C/C1=C(C)C(=O)CCC1(C)C" .
Output: 86

Input: Recall and state the measured % MTT for CC1=C(/C=C/C(C)=C/C=C/C(C)=C/C(=O)O)C(C)(C)CCC1 [RA, Retinoic acid, reference compound] .
Output: 50
